# SETTINGS: 298.15 K; 101.33 kPa; Liquid
REPORTED_METRIC: mass density (kg/m3)
Unit kg/m3 implied. Number only.

Before answering, review these 2 worked examples.
CCCCCO [pentan-1-ol] : 810.88
CCO [ethanol] : 785.15

[Q] Query: mass density; subject: CC(O)CO (configuration not stated) [1,2-propanediol]
[A] 1032.61

[Q] Query: mass density; subject: CCCO [propan-1-ol]
[A] 799.51

[Q] Query: mass density; subject: CCCCCCO [hexan-1-ol]
[A] 815.2

[Q] Query: mass density; subject: CCCCO [butan-1-ol]
[A] 805.75

[Q] Query: mass density; subject: CO [methanol]
[A] 786.5

====

# METHOD: refractive index (Na D-line) (dimensionless)
# SETTINGS: 298.15 K; 101.33 kPa; Liquid; Standard Abbe refractometry
Measured refractive index accompanies every entry in the list below.
// response body must contain only the number

Before answering, review these 2 worked examples.
CC(O)CO (configuration not stated) : 1.4323
CCCCCCO : 1.4166

[Q] Query: refractive index; subject: `CO`
[A] 1.327

[Q] Query: refractive index; subject: `CCO`
[A] 1.3595

[Q] Query: refractive index; subject: `CCCO`
[A] 1.3833

[Q] Query: refractive index; subject: `CCCCCO`
[A] 1.4089

[Q] Query: refractive index; subject: `CCCCO`
[A] 1.3974
